Attribute: IC50
# TARGET DESC: various mutants of kinase EGFR (BaF3 cell lines stably transfected with kinase) (Homo sapiens, UniProt P00533, T790M, form not given)
# Construct: other: BaF3 cells stably transfected with EGFR Δ19Del/T790M; MTS, 48 h; other: BaF3 cell line stably transfected with EGFR Δ19Del/T790M; MTS, 48
# Sequence (P00533 with tags, fused parts or gaps DEL746-750/T790M, form open): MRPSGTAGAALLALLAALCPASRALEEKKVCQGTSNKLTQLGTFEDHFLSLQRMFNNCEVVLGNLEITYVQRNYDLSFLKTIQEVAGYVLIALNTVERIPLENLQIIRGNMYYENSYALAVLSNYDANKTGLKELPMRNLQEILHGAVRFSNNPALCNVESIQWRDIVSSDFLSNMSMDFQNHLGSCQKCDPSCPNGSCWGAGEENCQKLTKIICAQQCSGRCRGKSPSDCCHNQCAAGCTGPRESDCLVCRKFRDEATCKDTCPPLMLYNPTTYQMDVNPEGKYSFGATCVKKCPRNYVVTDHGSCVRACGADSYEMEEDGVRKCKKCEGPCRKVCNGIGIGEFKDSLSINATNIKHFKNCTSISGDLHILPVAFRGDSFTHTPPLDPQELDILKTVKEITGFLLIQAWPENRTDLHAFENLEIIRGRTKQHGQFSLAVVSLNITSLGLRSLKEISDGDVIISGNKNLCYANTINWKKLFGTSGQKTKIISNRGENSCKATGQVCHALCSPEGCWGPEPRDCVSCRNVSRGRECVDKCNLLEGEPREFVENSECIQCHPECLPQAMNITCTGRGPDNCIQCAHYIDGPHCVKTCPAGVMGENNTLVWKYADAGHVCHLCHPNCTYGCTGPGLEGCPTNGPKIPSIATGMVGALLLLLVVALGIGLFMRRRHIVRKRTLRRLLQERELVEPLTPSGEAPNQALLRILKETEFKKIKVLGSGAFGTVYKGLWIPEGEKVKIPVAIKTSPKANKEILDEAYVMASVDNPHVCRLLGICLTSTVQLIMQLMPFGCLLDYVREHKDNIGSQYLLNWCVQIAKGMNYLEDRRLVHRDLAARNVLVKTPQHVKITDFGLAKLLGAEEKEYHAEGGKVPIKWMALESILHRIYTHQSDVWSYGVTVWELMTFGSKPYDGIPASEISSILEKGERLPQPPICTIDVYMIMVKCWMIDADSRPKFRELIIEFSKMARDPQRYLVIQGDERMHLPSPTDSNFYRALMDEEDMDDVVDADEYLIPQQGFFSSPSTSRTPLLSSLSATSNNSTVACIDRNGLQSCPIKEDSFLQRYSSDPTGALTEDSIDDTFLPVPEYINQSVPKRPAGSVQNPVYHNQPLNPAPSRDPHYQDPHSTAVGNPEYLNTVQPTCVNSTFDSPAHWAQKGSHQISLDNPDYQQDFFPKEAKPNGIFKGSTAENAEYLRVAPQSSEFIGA
# ASSAY METHOD TEXT: Growth inhibitory activity of compounds on BaF3 cell lines stably transfected with kinase (MTS, 48 h)
# Assay type: cell-based
# PROTOCOL CONDITIONS: BaF3 cell line stably transfected with EGFR Δ19Del/T790M, read-out: Δ19Del/ T790M growth inhibitory activity IC50

QUERY: Which IC50 value is on record for `CCc1cc(Nc2nc(Nc3ccc4nccnc4c3N(C)S(C)(=O)=O)c3[nH]ccc3n2)c(OC)nc1N1CCC(N2CCN(C)CC2)CC1` ?
RESULT: 50 to 500 nM

QUERY: Report IC50 for `COc1nc(N2CCC(N3CCN(C)CC3)CC2)ccc1Nc1ncc(Br)c(Nc2ccc3nccnc3c2N(C2CC2)S(C)(=O)=O)n1` please.
RESULT: 50 to 500 nM

---

Each entry below lists one item and its recorded IC50 value.
# TARGET DESC: various mutants of kinase EGFR (BaF3 cell lines stably transfected with kinase) (Homo sapiens, UniProt P00533, T790M, form not given)
# Construct: other: BaF3 cells stably transfected with EGFR Δ19Del/T790M; MTS, 48 h; other: BaF3 cell line stably transfected with EGFR Δ19Del/T790M; MTS, 48
# ASSAY METHOD TEXT: Growth inhibitory activity of compounds on BaF3 cell lines stably transfected with kinase (MTS, 48 h)
# Format: cell-based
# PROTOCOL CONDITIONS: BaF3 cells stably transfected with EGFR Δ19Del/T790M, read-out: IC50, growth inhibition, Δ19Del/T790M

QUERY: Looking for the measured IC50 of `CCc1cc(Nc2ncc(C(F)(F)F)c(Nc3ccc4nccnc4c3N(C)S(C)(=O)=O)n2)c(OC)nc1N1CCC(N2CCN(C)CC2)CC1` , can you help?
RESULT: ≤ 50 nM

QUERY: Which IC50 value belongs to `COc1nc(N2CCC(N3CCN(C)CC3)CC2)c(C)cc1Nc1ncc(Cl)c(Nc2ccc3nccnc3c2N(C2CC2)S(C)(=O)=O)n1` ?
RESULT: 500 to 2500 nM

QUERY: GET /values?readout=IC50&item= `CCS(=O)(=O)N(C)c1c(Nc2nc(Nc3ccc(N4CCC(N5CCN(C)CC5)CC4)cc3OC)ncc2Cl)ccc2nccnc12`
RESULT: 50 to 500 nM

QUERY: What value of IC50 has been recorded for this entry: `CCc1cc(Nc2ncc(Cl)c(Nc3ccc4nccnc4c3N(C)S(=O)(=O)CC)n2)c(OC)cc1N1CCC(N2CCN(C)CC2)CC1`
RESULT: ≤ 50 nM

QUERY: Data request, read-out IC50, for `COc1cc(N2CCC(N3CCN(C)CC3)CC2)ccc1Nc1ncc(Br)c(Nc2ccc3nccnc3c2N(C2CC2)S(C)(=O)=O)n1`
RESULT: ≤ 50 nM

QUERY: Would you kindly share the measured IC50 for `COc1cc(N2CCC(N(C)C)CC2)c(C)cc1Nc1ncc(Cl)c(Nc2ccc3nccnc3c2N(C2CC2)S(C)(=O)=O)n1` ?
RESULT: ≤ 50 nM

Recorded values, source patent US20230310428A1.
